- assay name: folding stability dG unfold from trypsin proteolysis; higher = more stable
Range-based classes on measured folding stability dG unfold: lower segment: < 0.6 kcal/mol; middle segment: ≥ 0.6 kcal/mol and < 2 kcal/mol; upper segment: ≥ 2 kcal/mol

State the class of the sequence shown: SMKYRITLTITKGDEDIVVEIETESEEEAKEKFKKAISPELLKALPEDAKVEITVEPEPLVIPEPGVPLPSA [r9_111_JUSTAS]
lower segment

Further, for SAGGSAGGSAGSYPIEYIPAPPDRLWLIDPKNGKIYEIYLDPERGEYSFEEIKEFPLGLESAGGSAGGSAGG [r11_352_JUSTAS] ?
middle segment

Please do the same for SAGGMKLEFEAEITVPLPVPTPEGGLEFVPITEPIRIEAEHPEELEIALKEAELETIERALKELGIESAGGS [r16_339_TrMRF] as well.
lower segment

Again, but for SAGGGMLEVTREPSPDGVTRYVVTVPADRTVTVTRPDGTTTTTAAPDADAVITYTVPPGTPVAVSLTPSAGG [r13_82_JUSTAS]
lower segment

Then this sequence: SAGGSAEITEIEIEEEGGRLRVRATVTNENGETFEFEAEIELPPPPPPEEVTLERDPETDEWKEVTSAGGSA [r15_335_TrROS_Hall]
upper segment

Param item: SAGGSAGGAPPDLKVTVKPTPGPGTGQRYTVVVELDEGGVLPFPFSFASPSEVEKAAKAIAALLSAGGSAGG [r6_996_TrMRF]
middle segment

Next: SAGGSAGGSAGPEIELREDSLVIRVKAKEGEVIGVPEGLEVEGVVYDPSTGELTVVVRAPSAGGSAGGSAGG [r11_942_TrMRF]
upper segment

Same lookup for SAGGSAMPKPKVEILKVEKTEDGTVKVPVKVEVTFEDGSKETVPATVTFEVEEGKPLGPEALKEAISAGGSA [r15_836_TrMRF] , please.
lower segment

Same thing, different sequence: SAGGEVKFEKNEDGTITVTVKAESEEEALEALKKLLEEQGFEIEEIKVERLPNGEVKITIKIKPKKPSAGGS [r8_253_TrROS_Hall]
upper segment

Try this sequence too: SPLKPNDIRPIKFTSPIRNPDNGRPFRIKVEIWVMPEDPMVIIKDEIEPPNGRTREHTFWIPPGQKIEIPSA [r9_88_TrROS]
lower segment

Likewise for SAPWRITDIDVKRHPNGRVRVTIRFPHPNMSVEIWLDKDGELDVEVSPDMRNHPPWFQNMIRDVAKELLSAG [r14_555_TrROS] ?
upper segment

Cool, now SAGGSAGGSKEKYIKIVVEVNGEKKVIVVKAKTIEELEELAKKLNLEVEIEKREDGYLVIRLKSAGGSAGGS [r12_810_TrROS_Hall]
upper segment

Now this one: SAMEKGKALKYREVIPLPDGPVELEIIYFPETGEYVAIIRNPSTGEKVEIPFKFDSLEDAVKAAKDFVASAG [r14_65_TrMRF]
upper segment

---

- assay name: folding stability dG unfold from chymotrypsin proteolysis; higher = more stable
measured quantity: folding stability dG unfold (kcal/mol)
API: value field is a number in kcal/mol; no unit string.

Would you mind telling me what folding stability dG unfold value was observed for SAGGMVDIYFPDAVIDDSGTKEDILEQLEKVTGKPIPEELREEILKGKTVEEIVELLKKRGFDVRVDSAGGS [r16_601_TrMRF] ?
3.4

Would you kindly repeat that for SAGGSAGGSDKIRKALKELGYPYEIDNIDVNVTKNGNPEIEIKYSPGMPPQDQKRIKRAVIDLSAGGSAGGS [r12_352_TrROS] ?
-0.14

Another sequence to look at: SAGGSAGGSAGPPNVKLTFTIMIMEMKMEPPPDGNPKMEMVMVPIEIEITAPPGDEITAISAGGSAGGSAGG [r11_174_TrROS]
4

Quick one: SAGGSGMVITIPVELPTPRTLTFTFYPETGTATVEVSPGVPAAEVRATVEEVFAAHGLKLNPITLLSAGGSA [r2_497_JUSTAS]
1.61

Another sequence to check: SAGGDNVRPIKFEFKDGVKKSIYRSEDMIYINVEFYYDGRPLYRHSIEIPNIPPGDDAEIKFKIPPGSAGGS [r8_155_TrROS]
1.55

What about this sequence? SAGGWEIVGSITIEHPNRPIIFPVFRDPEEGNVWVSIYRMDPENGKWQPIGVVPFPKGDAEDALDDISAGGS [r8_423_TrROS]
1.86

Same thing, different sequence: SAGGSAGGSAGDDGSDLPVVDLKVSISPFVRPLPNGEEVTVWKVLVENPGSSSRSEFYFGSAGGSAGGSAGG [r17_59_TrMRF]
0.118
